// reported inhibition for each item listed
- Measurement Target: Beta-adrenergic receptor kinase 1 (Homo sapiens) (UniProt P25098)
- Sequence (P25098 whole entry): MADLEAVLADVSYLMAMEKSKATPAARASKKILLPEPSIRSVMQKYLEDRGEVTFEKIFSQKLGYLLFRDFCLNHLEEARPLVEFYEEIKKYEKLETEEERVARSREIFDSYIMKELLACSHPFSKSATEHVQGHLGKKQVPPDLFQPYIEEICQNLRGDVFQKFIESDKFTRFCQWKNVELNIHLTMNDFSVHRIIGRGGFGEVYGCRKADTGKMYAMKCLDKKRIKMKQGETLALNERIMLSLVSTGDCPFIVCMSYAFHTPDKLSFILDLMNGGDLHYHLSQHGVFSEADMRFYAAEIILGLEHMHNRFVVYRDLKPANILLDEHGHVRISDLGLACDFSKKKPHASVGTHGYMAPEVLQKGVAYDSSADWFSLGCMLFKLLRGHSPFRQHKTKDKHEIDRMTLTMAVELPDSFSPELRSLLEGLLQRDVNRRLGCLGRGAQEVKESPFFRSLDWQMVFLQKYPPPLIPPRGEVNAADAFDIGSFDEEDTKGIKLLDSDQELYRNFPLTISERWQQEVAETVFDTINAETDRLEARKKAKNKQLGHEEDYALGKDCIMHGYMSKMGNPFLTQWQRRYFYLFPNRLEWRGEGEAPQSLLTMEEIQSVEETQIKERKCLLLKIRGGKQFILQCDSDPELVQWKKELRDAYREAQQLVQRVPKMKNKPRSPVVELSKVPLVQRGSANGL
- Test Summary: Inhibition of GRK-2 (unknown origin)-mediated phosphorylation of rhodopsin in bovine-rod outer segment membranes at 1 uM incubated under white light condition for 15 mins measured after 30 mins by autoradiography in presence of [gamma32P]-ATP
- Assay type: cell membranes
Peptide text beside a SMILES is read from it.

Molecule	Unit Descriptor	inhibition
CC[C@H](C)[C@H](NC(=O)[C@H](CO)NC(=O)[C@H](Cc1cnc[nH]1)NC(=O)[C@@H](CCCNC(=N)N)NC(=O)[C@H](CCCNC(=N)N)NC(=O)[C@H](CC(C)C)NC(=O)[C@H](CC(C)C)NC(=O)CN)C(=O)O	%	49.6
CC[C@H](C)[C@@H]1NC(=O)[C@H](CO)NC(=O)[C@H](Cc2cnc[nH]2)NC(=O)[C@@H](CCCNC(=N)N)NC(=O)[C@H](CCCNC(=N)N)NC(=O)[C@H](CC(C)C)NC(=O)[C@H](CC(C)C)NC(=O)CNC1=O	%	37.2
CC(C)C[C@@H]1NC(=O)[C@H](CC(C)C)NC(=O)[C@H](CCCCN)NC(=O)[C@H](CC(=O)O)NC(=O)[C@H](Cc2cnc[nH]2)NC(=O)CNC(=O)[C@H](CCCNC(=N)N)NC1=O (cyclo(DKLLRGH))	%	47.2
CC(C)C[C@H](NC(=O)CN)C(=O)N[C@@H](CC(C)C)C(=O)N[C@@H](CCCNC(=N)N)C(=O)N[C@H](CCCNC(=N)N)C(=O)N[C@@H](Cc1cnc[nH]1)C(=O)N[C@@H](CO)C(=O)O	%	47.6
CC(C)C[C@@H]1NC(=O)CNC(=O)[C@H](CO)NC(=O)[C@H](Cc2cnc[nH]2)NC(=O)[C@@H](CCCNC(=N)N)NC(=O)[C@H](CCCNC(=N)N)NC(=O)[C@H](CC(C)C)NC1=O	%	47.8
CC(C)C[C@@H]1NC(=O)[C@H](CCCCN)NC(=O)[C@H](CC(=O)O)NC(=O)[C@H](Cc2cnc[nH]2)NC(=O)[C@@H](CCCNC(=N)N)NC(=O)[C@H](CCCNC(=N)N)NC(=O)[C@H](CC(C)C)NC1=O	%	36.3

Values were extracted from ChEMBL document CHEMBL2434845.
